System: IGROV1 ovarian
TEST_DETAILS: NCI-60 one-dose screen, 48 h (100 = growth as untreated, 0 = no growth, -100 = all killed)
COND: 10 µM unless noted
About 83,000 compounds went through this panel and 20% of them were active in at least one assay; those are over-represented in the sample as a whole.
QUANTITY_KIND: growth (%)
One number for each entry, in %.

Past entries and their recorded results:
- INPUT_SMILES: "CN(Cc1ccccc1)Cc1ccccc1"
  EXPERIMENTAL_SYSTEM: "IGROV1 ovarian"
  QUANTITY_KIND: "growth"
  OBS_VALUE: 99.4
- INPUT_SMILES: "Cc1ccc2nc3c(nc2c1)-c1cccc2cccc-3c12"
  EXPERIMENTAL_SYSTEM: "IGROV1 ovarian"
  QUANTITY_KIND: "growth"
  OBS_VALUE: 63.9
- INPUT_SMILES: "O=[N+]([O-])c1ccc2nc3c4ccccc4c4ccccc4c3nc2c1"
  EXPERIMENTAL_SYSTEM: "IGROV1 ovarian"
  QUANTITY_KIND: "growth"
  OBS_VALUE: 58.8
- INPUT_SMILES: "O=C(Cc1cccc2ccccc12)N/N=C/c1ccc2c(c1)CCC2"
  EXPERIMENTAL_SYSTEM: "IGROV1 ovarian"
  QUANTITY_KIND: "growth"
  OBS_VALUE: 47.8
- INPUT_SMILES: "OCc1ccccn1"
  EXPERIMENTAL_SYSTEM: "IGROV1 ovarian"
  QUANTITY_KIND: "growth"
  OBS_VALUE: 116

Next, consider the following compound.
Give the observed growth of `Cc1ccc(S(=O)(=O)NCN2C(=O)c3ccccc3C2=O)cc1` for IGROV1 ovarian.
107
